Experiment: AUC (0 to infinity) in ICR mouse at 25 mg/kg, ip
Format: ADME, organism-based
Design: dose 25 mg/kg, route ip
Settings: in vivo
Observed Property: AUC(0-inf) (µM·h)
// note: answer is a bare numeric in µM·h

Cc1c(C(=O)N[C@H](CCC2CC2)C(=O)Nc2ccccc2)[nH]c2c1C(=O)CC(C)(C)C2	10.3

For the next question, use this compound.
Quickly give me recorded AUC(0-inf) for `Cc1c(C(=O)N[C@H](CCC2CC2)C(=O)Nc2ccc(C#N)cc2)[nH]c2c1C(=O)CC(C)(C)C2` 418

====

Biological target: Histone-lysine N-methyltransferase EHMT2 (Homo sapiens)
Sequence (Q96KQ7 whole entry): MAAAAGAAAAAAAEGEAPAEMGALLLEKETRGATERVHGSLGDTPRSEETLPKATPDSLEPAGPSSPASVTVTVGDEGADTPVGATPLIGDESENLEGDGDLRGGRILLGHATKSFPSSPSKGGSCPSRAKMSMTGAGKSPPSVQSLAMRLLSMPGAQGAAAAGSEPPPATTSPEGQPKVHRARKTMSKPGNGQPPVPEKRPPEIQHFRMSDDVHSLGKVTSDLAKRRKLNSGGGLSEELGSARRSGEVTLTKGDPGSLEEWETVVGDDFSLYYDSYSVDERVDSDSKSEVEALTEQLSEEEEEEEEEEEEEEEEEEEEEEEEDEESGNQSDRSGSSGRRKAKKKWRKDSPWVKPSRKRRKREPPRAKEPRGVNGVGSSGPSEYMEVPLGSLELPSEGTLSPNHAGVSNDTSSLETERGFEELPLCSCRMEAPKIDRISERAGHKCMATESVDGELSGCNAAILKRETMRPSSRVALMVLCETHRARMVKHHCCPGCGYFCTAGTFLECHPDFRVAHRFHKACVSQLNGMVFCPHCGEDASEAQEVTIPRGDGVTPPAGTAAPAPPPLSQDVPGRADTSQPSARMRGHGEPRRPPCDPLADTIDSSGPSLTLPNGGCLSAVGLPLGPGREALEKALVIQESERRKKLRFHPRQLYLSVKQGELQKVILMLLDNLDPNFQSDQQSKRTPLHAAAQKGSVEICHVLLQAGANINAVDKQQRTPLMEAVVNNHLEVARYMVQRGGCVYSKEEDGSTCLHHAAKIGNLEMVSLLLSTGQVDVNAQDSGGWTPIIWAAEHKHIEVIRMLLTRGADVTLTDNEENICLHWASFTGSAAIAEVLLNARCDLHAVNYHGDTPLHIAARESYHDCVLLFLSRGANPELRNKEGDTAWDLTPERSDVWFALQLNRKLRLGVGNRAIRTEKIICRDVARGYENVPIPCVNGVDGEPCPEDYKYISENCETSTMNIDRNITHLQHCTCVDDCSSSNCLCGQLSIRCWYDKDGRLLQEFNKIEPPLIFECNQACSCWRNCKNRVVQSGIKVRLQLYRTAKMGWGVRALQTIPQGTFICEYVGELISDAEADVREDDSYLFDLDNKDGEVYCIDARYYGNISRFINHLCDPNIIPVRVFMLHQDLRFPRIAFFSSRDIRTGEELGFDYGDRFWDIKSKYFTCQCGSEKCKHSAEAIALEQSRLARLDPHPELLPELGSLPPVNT
Test: Inhibition of N-terminal GST-tagged human recombinant G9a (785 to 1210 residues) expressed in baculovirus infected Sf9 cells incubated for 1 hr by AlphaLISA analysis
Details: sf9
Observed Property: pIC50
Expect pIC50 as a plain number equal to -log10 of the molar concentration.

State, for Histone-lysine N-methyltransferase EHMT2 (Homo sapiens), measured pIC50 of the molecule listed here: `Cc1c(C(=O)N[C@@H](CCC2CC2)C(=O)Nc2ccc(C#N)cc2)[nH]c2c1C(=O)CC(C)(C)C2` 7.57
